target: Urotensin-2 receptor (Homo sapiens, UniProt Q9UKP6); assay: Antagonist activity at human UT receptor expressed in HEK293 cells using Na [125I] incubated for 2 hrs by gamma counting method; assay type: cell-based
Sequence (Q9UKP6 whole entry): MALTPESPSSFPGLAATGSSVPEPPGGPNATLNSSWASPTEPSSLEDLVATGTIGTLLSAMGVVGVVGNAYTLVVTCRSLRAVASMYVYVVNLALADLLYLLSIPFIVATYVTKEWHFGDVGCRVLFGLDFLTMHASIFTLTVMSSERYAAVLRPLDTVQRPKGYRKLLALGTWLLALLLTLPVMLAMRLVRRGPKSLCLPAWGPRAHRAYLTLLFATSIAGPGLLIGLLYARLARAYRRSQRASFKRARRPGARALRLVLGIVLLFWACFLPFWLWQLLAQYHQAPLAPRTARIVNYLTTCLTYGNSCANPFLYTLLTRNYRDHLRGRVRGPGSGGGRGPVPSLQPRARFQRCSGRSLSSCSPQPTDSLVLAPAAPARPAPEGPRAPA
pIC50: −log10 of the molar value.
So basically: pIC50 at 8 or higher? That is YES. Lower than 8? That is NO.

[[record]]
molecule = "CC(C)[C@H](NC(=O)[C@@H]1CSSC[C@H](NC(=O)[C@H](C)N)C(=O)N[C@@H](Cc2ccccc2)C(=O)N[C@H](Cc2ccc(-c3ccccc3)cc2)C(=O)N[C@@H](CCCCN)C(=O)N[C@@H](Cc2ccc(O)cc2)C(=O)N1)C(=O)O"
class_assignment = "YES"

[[record]]
molecule = "CC(C)[C@H](NC(=O)[C@@H]1CSSC[C@H](NC(=O)[C@H](C)N)C(=O)N[C@@H](Cc2ccccc2)C(=O)N[C@@H](Cc2ccc(-c3ccc(-c4ccccc4)cc3)cc2)C(=O)N[C@@H](CCCCN)C(=O)N[C@@H](Cc2ccc(O)cc2)C(=O)N1)C(=O)O"
class_assignment = "NO"

[[record]]
molecule = "CC(C)[C@H](NC(=O)[C@@H]1CSSC[C@H](NC(=O)[C@H](C)N)C(=O)N[C@@H](Cc2ccccc2)C(=O)N[C@@H](Cc2ccc(-c3ccncc3)cc2)C(=O)N[C@@H](CCCCN)C(=O)N[C@@H](Cc2ccc(O)cc2)C(=O)N1)C(=O)O"
class_assignment = "NO"

[[record]]
molecule = "CC(C)[C@H](NC(=O)[C@@H]1CSSC[C@H](NC(=O)[C@H](C)N)C(=O)N[C@@H](Cc2ccccc2)C(=O)N[C@@H](Cc2ccc(-c3cccnc3)cc2)C(=O)N[C@@H](CCCCN)C(=O)N[C@@H](Cc2ccc(O)cc2)C(=O)N1)C(=O)O"
class_assignment = "NO"

[[record]]
molecule = "CC(C)[C@H](NC(=O)[C@@H]1CSSC[C@H](NC(=O)[C@H](C)N)C(=O)N[C@@H](Cc2ccccc2)C(=O)N[C@@H](Cc2ccc(-c3ccsc3)cc2)C(=O)N[C@@H](CCCCN)C(=O)N[C@@H](Cc2ccc(O)cc2)C(=O)N1)C(=O)O"
class_assignment = "NO"

[[record]]
molecule = "CC(C)[C@H](NC(=O)[C@@H]1CSSC[C@H](NC(=O)[C@H](C)N)C(=O)N[C@@H](Cc2ccccc2)C(=O)N[C@@H](Cc2c[nH]c3ccccc23)C(=O)N[C@@H](CCCCN)C(=O)N[C@@H](Cc2ccc(O)cc2)C(=O)N1)C(=O)O"
class_assignment = "YES"


Please turn your attention to the following entry.
stdin: Tell me whether pIC50 is at least 8 here: CC(C)[C@H](NC(=O)[C@@H]1CSSC[C@H](NC(=O)[C@H](C)N)C(=O)NC(Cc2ccccc2)C(=O)N[C@H](Cc2ccc(I)cc2)C(=O)N[C@@H](CCCCN)C(=O)N[C@@H](Cc2ccc(O)cc2)C(=O)N1)C(=O)O (stereo in doubt)
stdout: YES

====

Let's look at some molecules and their measured EC50.
test system: Thoracic aorta; assay: Contractile activity in Sprague-Dawley rat thoracic aorta assessed as contraction in aortic ring preincubated ofr 30 mins followed by URP or human U2-stimulation; format: functional, tissue-based

[[record]]
smiles = "CC(C)[C@H](NC(=O)[C@@H]1CSSC[C@H](NC(=O)[C@H](C)N)C(=O)N[C@@H](Cc2ccccc2)C(=O)N[C@@H](Cc2ccc(-c3ccsc3)cc2)C(=O)N[C@@H](CCCCN)C(=O)N[C@@H](Cc2ccc(O)cc2)C(=O)N1)C(=O)O"
measure_name = "EC50"
measured = "> 3.16 µM"

[[record]]
smiles = "CC(C)[C@H](NC(=O)[C@@H]1CSSC[C@H](NC(=O)[C@H](C)N)C(=O)N[C@@H](Cc2ccccc2)C(=O)N[C@@H](Cc2ccc(-c3cccnc3)cc2)C(=O)N[C@@H](CCCCN)C(=O)N[C@@H](Cc2ccc(O)cc2)C(=O)N1)C(=O)O"
measure_name = "EC50"
measured = "> 3.16 µM"


From here, focus on the item given below.
stdin: Request the reported EC50 associated with CC(C)[C@H](NC(=O)[C@@H]1CSSC[C@H](NC(=O)[C@H](C)N)C(=O)N[C@@H](Cc2ccccc2)C(=O)N[C@@H](Cc2ccc(-c3ccncc3)cc2)C(=O)N[C@@H](CCCCN)C(=O)N[C@@H](Cc2ccc(O)cc2)C(=O)N1)C(=O)O
stdout: > 3.16 µM
